- Assay name: Antioxidant activity assessed as reduction in beta-carotene/linoleic acid bleaching activity at 3 mg/ml after 2 hrs by spectrophotometric method (reference value: 1 to 8%)
- Type: functional
- Set-up: scale not given: the % may be the effect or the level left
Hi there, I'd appreciate the recorded Activity for every entry that follows.
# value in %; strip the unit string

I'd like to know its Activity. The molecule in question is "Cc1cccc(N2C(=O)[C@H]3[C@H](ON4[C@@H]3C(=O)N(C)[C@@]43C[C@H](C)CC[C@H]3C(C)C)C2=O)c1" 65.8

I'd like to know its Activity. The molecule in question is "CC(C)[C@@H]1CC[C@@H](C)C[C@@]12N(C)C(=O)[C@@H]1[C@H]3C(=O)N(c4ccc(Cl)cc4)C(=O)[C@H]3ON12" 73.2

I'd like to know its Activity. The molecule in question is "CC(C)[C@@H]1CC[C@@H](C)C[C@@]12N(C)C(=O)[C@@H]1[C@H]3C(=O)N(c4ccccc4)C(=O)[C@H]3ON12" 58.9

I'd like to know its Activity. The molecule in question is "CC(C)[C@@H]1CC[C@@H](C)C[C@@]12N(C)C(=O)[C@@H]1[C@H]3C(=O)N(C)C(=O)[C@H]3ON12" 67.5

I'd like to know its Activity. The molecule in question is "CC(C)[C@@H]1CC[C@@H](C)C[C@@]12N(C)C(=O)[C@@H]1[C@H]3C(=O)NC(=O)[C@H]3ON12" 47.2

I'd like to know its Activity. The molecule in question is Cc1cc(C(C)(C)C)c(O)c(C(C)(C)C)c1 [BUTYLATED HYDROXYTOLUENE] 79.2

I'd like to know its Activity. The molecule in question is "Cc1ccc(N2C(=O)[C@H]3[C@H](ON4[C@@H]3C(=O)N(C)[C@@]43C[C@H](C)CC[C@H]3C(C)C)C2=O)c(C)c1" 71.3

I'd like to know its Activity. The molecule in question is "CC(C)[C@@H]1CC[C@@H](C)C[C@@]12N(C)C(=O)[C@@H]1[C@H]3C(=O)N(c4ccc5ccccc5c4)C(=O)[C@H]3ON12" 57.4

I'd like to know its Activity. The molecule in question is "COc1ccc(N2C(=O)[C@H]3[C@H](ON4[C@@H]3C(=O)N(C)[C@@]43C[C@H](C)CC[C@H]3C(C)C)C2=O)cc1" 67.7

###

- Assay name: Antioxidant activity assessed as reduction in beta-carotene/linoleic acid bleaching activity at 1 mg/ml after 2 hrs by spectrophotometric method (reference value: 1 to 8%)
- Type: functional
- Set-up: scale not given: the % may be the effect or the level left
Hi there, I'd appreciate the recorded Activity for every entry that follows.
# value in %; strip the unit string

I'd like to know its Activity. The compound in question is Cc1cc(C(C)(C)C)c(O)c(C(C)(C)C)c1 [BUTYLATED HYDROXYTOLUENE] 52.3

I'd like to know its Activity. The compound in question is "Cc1ccc(N2C(=O)[C@H]3[C@H](ON4[C@@H]3C(=O)N(C)[C@@]43C[C@H](C)CC[C@H]3C(C)C)C2=O)c(C)c1" 53.1

I'd like to know its Activity. The compound in question is "CC(C)[C@@H]1CC[C@@H](C)C[C@@]12N(C)C(=O)[C@@H]1[C@H]3C(=O)N(c4ccccc4)C(=O)[C@H]3ON12" 35.4

I'd like to know its Activity. The compound in question is "CC(C)[C@@H]1CC[C@@H](C)C[C@@]12N(C)C(=O)[C@@H]1[C@H]3C(=O)N(c4ccc5ccccc5c4)C(=O)[C@H]3ON12" 29.6
